The values you see were collected from patent US20190362816A1.

# TESTED_ON: cysteine protease cathepsin L (Homo sapiens)
# Sequence (P07711 114-333): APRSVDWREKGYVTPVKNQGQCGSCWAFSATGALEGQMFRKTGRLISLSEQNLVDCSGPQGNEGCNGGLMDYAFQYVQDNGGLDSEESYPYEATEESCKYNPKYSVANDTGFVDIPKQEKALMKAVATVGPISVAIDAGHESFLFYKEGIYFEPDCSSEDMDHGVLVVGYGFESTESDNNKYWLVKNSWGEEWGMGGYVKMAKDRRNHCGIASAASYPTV
READOUT_TYPE: pKi
Just so you know, pKi here is -log10 of the concentration in molar units; reply with that number alone.

Name the reported pKi value associated with the compound CC(Oc1ccc(Br)cc1Br)C(=O)NC/C=C/S(C)(=O)=O (racemic)
3.87

====

# TESTED_ON: cysteine protease papain (Carica papaya)
# Sequence (P00784 134-345): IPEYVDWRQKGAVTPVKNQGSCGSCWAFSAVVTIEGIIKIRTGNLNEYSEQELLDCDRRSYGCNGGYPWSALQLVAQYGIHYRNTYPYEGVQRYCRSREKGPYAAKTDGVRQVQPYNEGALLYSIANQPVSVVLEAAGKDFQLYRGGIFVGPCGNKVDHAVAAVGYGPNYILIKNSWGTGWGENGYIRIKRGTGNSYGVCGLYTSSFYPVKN
# TEST: enzyme assay against cysteine protease papain (kinact/Ki)
# Assay type: biochemical
# CONDITION_SET: covalent fragments of this work; J Med Chem. 2014, 57(11), 4969-74; read-out: Inhibitors of papain in this work, kinact/Ki
READOUT_TYPE: kinact/KI (M⁻¹ s⁻¹)
Supply the numeric figure in M⁻¹ s⁻¹, leaving out any unit text.

>>> value("COC(=O)/C=C/CNC(=O)c1cc(-c2ccc(C)cc2)on1")
1.23
>>> value("COC(=O)/C=C/CNC(=O)C1CCN(C(=O)CC(C)C)CC1")
0.461
>>> value("COC(=O)/C=C/CNC(=O)c1sc(-c2ccccc2F)nc1C")
0.409

For COC(=O)/C=C/CNC(=O)c1ccc(C2CCCO2)s1 (stereo not shown) , what is its reported kinact/KI?
0.037
